List of IC50 values.
tested on: Protein farnesyltransferase (Homo sapiens, UniProt P49354+P49356)
assay: Displacement of radiolabeled FTI from Farnesyltransferase in cultured Ha-ras transformed RAT1 cells.
Assay type: cell-based
measured property: IC50 (nM)

[[record]]
compound = "COC(=O)c1ccc2cc1CN1CCN(CC1=O)Cc1cncn1Cc1ccc(C#N)c(c1)O2"
tested_on = "Protein farnesyltransferase (Homo sapiens, UniProt P49354+P49356)"
recorded_number = 20

[[record]]
compound = "CCc1ccc2cc1CN1CCN(CC1=O)Cc1cncn1Cc1ccc(C#N)c(c1)O2"
tested_on = "Protein farnesyltransferase (Homo sapiens, UniProt P49354+P49356)"
recorded_number = 1.2

[[record]]
compound = "N#Cc1ccc2cc1Oc1ccc(C(=O)NC3C4CC5CC(C4)CC3C5)c(c1)CN1CCN(CC1=O)Cc1cncn1C2 (stereo not given)"
tested_on = "Protein farnesyltransferase (Homo sapiens, UniProt P49354+P49356)"
recorded_number = 30

[[record]]
compound = "Cc1ccc2cc1CN1CCN(CC1=O)Cc1cncn1Cc1ccc(C#N)c(c1)O2"
tested_on = "Protein farnesyltransferase (Homo sapiens, UniProt P49354+P49356)"
recorded_number = 0.33

[[record]]
compound = "N#Cc1ccc2cc1Oc1ccc(F)c(c1)CN1CCN(CC1=O)Cc1cncn1C2"
tested_on = "Protein farnesyltransferase (Homo sapiens, UniProt P49354+P49356)"
recorded_number = 1


----------
tested on: Protein farnesyltransferase (Homo sapiens, UniProt P49354+P49356)
assay: Displacement of radiolabeled FTI from Farnesyltransferase in cultured Ha-ras transformed RAT1 cells.
Type: cell-based
# log10(IC50) per entry
measured property: log10(IC50) (log10 of the value in nM)

[[record]]
compound_structure = "N#Cc1ccc2cc1Oc1ccc3cccc(c3c1)N1CCN(CC1=O)Cc1cncn1C2"
tested_on = "Protein farnesyltransferase (Homo sapiens, UniProt P49354+P49356)"
recorded_number = -0.54

[[record]]
compound_structure = "C#Cc1ccc2cc1CN1CCN(CC1=O)Cc1cncn1Cc1ccc(C#N)c(c1)O2"
tested_on = "Protein farnesyltransferase (Homo sapiens, UniProt P49354+P49356)"
recorded_number = 0.15

[[record]]
compound_structure = "N#Cc1ccc2cc1Oc1ccc(Br)c(c1)CN1CCN(CC1=O)Cc1cncn1C2"
tested_on = "Protein farnesyltransferase (Homo sapiens, UniProt P49354+P49356)"
recorded_number = 0.04

[[record]]
compound_structure = "CC(C)(C)CCc1ccc2cc1CN1CCN(CC1=O)Cc1cncn1Cc1ccc(C#N)c(c1)O2"
tested_on = "Protein farnesyltransferase (Homo sapiens, UniProt P49354+P49356)"
recorded_number = 1.45

[[record]]
compound_structure = "CCCc1ccc2cc1CN1CCN(CC1=O)Cc1cncn1Cc1ccc(C#N)c(c1)O2"
tested_on = "Protein farnesyltransferase (Homo sapiens, UniProt P49354+P49356)"
recorded_number = -0.36


----------
tested on: Protein farnesyltransferase (Homo sapiens, UniProt P49354+P49356)
assay: Inhibition of human Farnesyltransferase -catalyzed incorporation of [3H]FPP into recombinant Ras-CVIM.
Type: protein-complex assay
Measured log10(IC50) values are reported for all entries that follow.
measured property: log10(IC50) (log10 of the value in nM)

[[record]]
compound = "N#Cc1ccc2cc1Oc1ccc(CC(O)CO)c(c1)CN1CCN(CC1=O)Cc1cncn1C2 (stereo not given)"
tested_on = "Protein farnesyltransferase (Homo sapiens, UniProt P49354+P49356)"
recorded_number = 0.83

[[record]]
compound = "N#Cc1ccc2cc1Oc1ccc(C#Cc3ccccc3)c(c1)CN1CCN(CC1=O)Cc1cncn1C2"
tested_on = "Protein farnesyltransferase (Homo sapiens, UniProt P49354+P49356)"
recorded_number = 2.81

[[record]]
compound = "CC(C)(C)CCc1ccc2cc1CN1CCN(CC1=O)Cc1cncn1Cc1ccc(C#N)c(c1)O2"
tested_on = "Protein farnesyltransferase (Homo sapiens, UniProt P49354+P49356)"
recorded_number = 1.28

[[record]]
compound = "C#Cc1ccc2cc1CN1CCN(CC1=O)Cc1cncn1Cc1ccc(C#N)c(c1)O2"
tested_on = "Protein farnesyltransferase (Homo sapiens, UniProt P49354+P49356)"
recorded_number = -0.30

[[record]]
compound = "CCCc1ccc2cc1CN1CCN(CC1=O)Cc1cncn1Cc1ccc(C#N)c(c1)O2"
tested_on = "Protein farnesyltransferase (Homo sapiens, UniProt P49354+P49356)"
recorded_number = -0.51

